target: NADPH oxidase 4 (Homo sapiens); assay: NOX4-dependent H2O2 signal modulators, primary screen, NOX inhibitor project, cell-based, HEK293-NOX4, tetracycline-induced, Amplex Red fluorescence (AID 1160); conditions: 45 min, higher = more signal, called active from +8 up or from −8 down
Mark n for z-score values under -0.2, and y for everything at or above.

Does z-score meet or surpass -0.2 for CN1C(=O)C2C=CC(C(O)COCc3ccccc3)N(Nc3ccc([N+](=O)[O-])cc3[N+](=O)[O-])C2C1=O (stereo not given) ?
n

Hi team, for CCCC1(C(=O)OC)C=C2C(=C(C(C)C)C(=O)C2C)CN1 (stereo not given) , is the recorded z-score at or above -0.2?
n

hey, is z-score for this one >= -0.2? C#CCN(C(=O)OC(C)(C)C)[C@H](CO)c1ccccc1
y

Threshold query (z-score >= -0.2) on CC(C)c1ccc(NN2C(C(O)C3CCCCC3)C=CC3C(=O)N(c4ccccc4)C(=O)C32)cc1 (stereo not given)
n

Has [N-]=[N+]=NCc1ccccc1[C@H]1OC(c2ccc(OCCCO)cc2)=N[C@@]1(Cc1ccccc1N=[N+]=[N-])C(=O)N1CCOCC1 a recorded z-score greater than or equal to -0.2?
n

Could you verify whether the entry O=C(N1CCOCC1)[C@]1(CCS(=O)(=O)c2ccccc2)N=C(c2ccc(OCCCO)cc2)O[C@@H]1c1ccccc1 shows z-score of no less than -0.2?
y

Does z-score meet or surpass -0.2 for CS(=O)(=O)CCOC(=O)C1=CC(CCCO)=CC(C2CC2)N(Cc2sc3ccccc3c2Cl)C=C1C(=O)OCCS(C)(=O)=O (stereo not given) ?
n

hey, is z-score for this one >= -0.2? CC1C2C(CCCO)=CC(C3C(=O)N(C)C(=O)C23)N1Cc1cccc(OC(F)(F)F)c1 (stereo not given)
n

Could you please find out whether O=C1C2C=CC(C(O)C3CCCCC3)N(Nc3ccccc3F)C2C(=O)N1c1ccccc1 (stereo not given) has z-score that meets -0.2 or exceeds it?
n

Hi, just wondering whether CC(C)[Si]1(C(C)C)OCc2cc(-c3ccc(-c4ccc(Cl)c(Cl)c4)o3)nc(-c3ccc(Oc4ccccc4)cc3)c21 shows z-score of -0.2 or higher.
y

Does the compound COc1ccc(-c2cc3c(c(CCc4ccccc4)n2)[Si](C(C)C)(C(C)C)O[C@H]3c2ccccc2)cn1 have recorded z-score that is -0.2 or more?
y

Quick check: does CCN1C(=O)C2CC(=O)C3C(CN(S(=O)(=O)c4ccc(C)cc4)C3c3ccc(C)cc3)C2C1=O (stereo not given) have z-score greater than or equal to -0.2?
y

Does the compound C=CCC(OC(C)=O)[C@@H]1[C@@H](N(Cc2ccc(-c3ccccc3)cc2)C(=O)Cc2ccc(OC)cc2)c2cc(OCCCO)ccc2N1C(=O)c1ccc2ccccc2c1 (stereo not given in full) have recorded z-score that is -0.2 or more?
y

Please check the record COC(=O)[C@@]1(Cc2ccc(F)cc2)[C@H]2c3cc(C(=O)N4CCCC4)n(Cc4ccc(C(F)(F)F)nc4)c3C[C@H]2CN1C(=O)c1ccccc1 and state if its z-score is at or above -0.2.
y

Test whether the compound CN(C)CCCCNC(=O)[C@H]1C[C@H]2C(=O)N[C@@H](CCCCN(C)C)C(=O)N2[C@H]1c1ccc(O)cc1 records z-score of -0.2 or higher.
y

# bool: z-score of COCCCNC(=O)[C@@]1(c2ccc([N+](=O)[O-])cc2)CC(=O)N(C2CCCCC2)[C@@H]1c1ccc(CO)cc1I >= -0.2
y

I'd appreciate it if you could say whether COCCOC(=O)N1C(=O)[C@@]2(c3ccccc31)[C@H](C(=O)Nc1nc3ccccc3s1)[C@H]1C(=O)O[C@H](c3ccccc3)[C@H](c3ccccc3)N1[C@@H]2c1ccccc1OCCO has z-score at least equal to -0.2.
n

Is the recorded value of z-score equal to or greater than -0.2 for this compound? C=C[C@H](OC)[C@@H](O)c1ccc(OC)c(O)c1
n

For this compound, is measured z-score -0.2 or higher? COC(=O)[C@@]1(Cc2ccc(F)cc2)[C@H]2c3cc(C(=O)N(C)C)n(Cc4ccc(C(F)(F)F)nc4)c3C[C@H]2CN1C(=O)c1ccccc1
y

Reported z-score reaches at least -0.2 for COc1ccc(C#Cc2ccc3c(c2)[C@]2(C(=O)N3)[C@H](c3ccccc3OCCO)N3[C@H](c4ccccc4)[C@H](c4ccccc4)OC(=O)[C@H]3[C@@H]2C(=O)NC[C@H](O)c2ccccc2)cc1 ?
y

Textbook exercise: given the entry COCCCNC(=O)[C@@]1(Cc2ccccc2I)c2ccccc2C(=O)N(Cc2ccccc2C(F)(F)F)[C@H]1c1ccc(CO)cc1 , state whether its z-score is greater than or equal to -0.2.
n

For this compound, is measured z-score -0.2 or higher? CCCCCN1CC=CC23O[C@@H]4/C=C\CCCOC(=O)C4[C@H]2C(=O)N(CCO)[C@@H]3C1=O (stereo not given in full)
y

Would you say C=C(COC)C(=O)CC[C@@H](OC(=O)c1ccccc1-c1ccccc1C(=O)O)c1ccccc1OCCO shows z-score at minimum -0.2?
y

Entry CC(C)C[C@@H]1NC(=O)[C@H]2C[C@@H](C(=O)O)[C@@H](c3cccc(OCCO)c3)N2C1=O : is its z-score no less than -0.2?
n

Please check the record [N-]=[N+]=NCc1ccccc1C[C@@]1(C(N)=O)N=C(c2ccc(OCCCO)cc2)O[C@@H]1c1ccccc1N=[N+]=[N-] and state if its z-score is at or above -0.2.
n

For this compound, is measured z-score -0.2 or higher? COC(=O)[C@@]1(Cc2ccc(F)cc2)[C@H]2c3cc(C(=O)N(C)C)n(Cc4cccc5ccccc45)c3C[C@H]2CN1C(=O)c1ccccc1
n

Hello, I need to know if COC(=O)C(CC#Cc1ccc2c(c1)[C@]1(C(=O)N2)[C@H](c2ccccc2OCCO)N2[C@H](c3ccccc3)[C@H](c3ccccc3)OC(=O)[C@H]2[C@@H]1C(=O)N1CCN(c2ncccn2)CC1)C(=O)OC has measured z-score not below -0.2. Thanks!
y

Could you please find out whether Cc1ccc(S[C@]2(C(=O)NC(C)C)CC(=O)N(Cc3ccccc3)[C@@H]2c2ccc(CO)cc2I)cc1 has z-score that meets -0.2 or exceeds it?
n

# check: z-score of CCOC(=O)C1=CCC(c2cccn2C(=O)OC(C)(C)C)N(S(=O)(=O)c2ccc(C)cc2)C1 (stereo not given) is greater than or equal to -0.2
y

Could you please find out whether COC(=O)c1c2oc(c1C(=O)OC)C(=O)N[C@H](Cc1ccccc1)Cn1cc(nn1)C1(CCCCC1)NC(=O)N[C@H](CO)CC2 has z-score that meets -0.2 or exceeds it?
y

This collection of values is drawn from PubChem BioAssay.
